# target: UniProt P06276
# Sequence (P06276 whole entry): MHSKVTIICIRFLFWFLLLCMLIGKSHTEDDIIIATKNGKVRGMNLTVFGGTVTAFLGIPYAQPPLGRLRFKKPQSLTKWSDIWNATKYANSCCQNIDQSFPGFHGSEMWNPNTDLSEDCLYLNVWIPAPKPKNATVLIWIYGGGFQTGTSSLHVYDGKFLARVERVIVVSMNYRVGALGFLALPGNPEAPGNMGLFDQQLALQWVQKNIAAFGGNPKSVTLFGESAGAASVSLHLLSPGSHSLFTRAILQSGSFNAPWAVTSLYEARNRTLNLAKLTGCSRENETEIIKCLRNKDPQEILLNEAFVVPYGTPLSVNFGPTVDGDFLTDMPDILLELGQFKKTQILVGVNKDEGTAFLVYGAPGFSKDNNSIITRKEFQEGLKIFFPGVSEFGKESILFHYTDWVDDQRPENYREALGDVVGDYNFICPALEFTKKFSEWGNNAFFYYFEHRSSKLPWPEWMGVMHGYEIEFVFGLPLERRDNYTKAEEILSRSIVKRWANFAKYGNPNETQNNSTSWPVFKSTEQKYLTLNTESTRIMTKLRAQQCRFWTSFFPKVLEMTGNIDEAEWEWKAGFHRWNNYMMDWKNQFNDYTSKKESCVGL
# protocolSummary: Inhibition of human serum BuChE at 10 uM using butyrylthiocholine chloride as substrate preincubated for 15 mins followed by substrate addition and measured at 1 min time interval by Ellman's method relative to control
endpointLabel: inhibition

[[record]]
smilesrepr = "CC(C)(C)c1ccc2nc(-c3cccc(N4CCc5ccccc5C4)n3)[nH]c2c1"
reportedmeasurement = "3.8%"


Request: inhibition, test system UniProt P06276, entry "Fc1ccc2nc(-c3cccc(N4CCc5ccccc5C4)n3)[nH]c2c1"
24.2%

Request: inhibition, test system UniProt P06276, entry "Fc1ccc2nc(-c3cccc(N4CCc5ccccc5C4)c3)[nH]c2c1"
17.1%

Request: inhibition, test system UniProt P06276, entry "Fc1cc2nc(-c3cccc(N4CCc5ccccc5C4)n3)[nH]c2cc1F"
8.9%

Request: inhibition, test system UniProt P06276, entry "FC(F)(F)c1ccc2nc(-c3cccc(N4CCc5ccccc5C4)n3)[nH]c2c1"
18.6%

----------
# target: Beta-secretase 1 (Homo sapiens, UniProt P56817)
# Sequence (P56817 whole entry): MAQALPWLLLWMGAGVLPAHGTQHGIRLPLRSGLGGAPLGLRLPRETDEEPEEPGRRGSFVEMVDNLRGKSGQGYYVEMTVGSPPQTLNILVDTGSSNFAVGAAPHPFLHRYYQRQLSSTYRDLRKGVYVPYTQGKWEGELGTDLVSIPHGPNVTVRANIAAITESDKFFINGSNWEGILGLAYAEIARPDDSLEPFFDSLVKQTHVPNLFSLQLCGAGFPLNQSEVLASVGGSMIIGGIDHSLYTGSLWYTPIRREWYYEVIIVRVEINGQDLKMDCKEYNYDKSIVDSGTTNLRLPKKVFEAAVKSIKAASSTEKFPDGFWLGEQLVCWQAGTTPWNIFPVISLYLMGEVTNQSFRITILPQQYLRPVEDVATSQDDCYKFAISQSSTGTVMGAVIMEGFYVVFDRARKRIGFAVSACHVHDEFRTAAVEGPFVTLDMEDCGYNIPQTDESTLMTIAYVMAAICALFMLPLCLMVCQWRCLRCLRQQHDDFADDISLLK
# protocolSummary: Inhibition of recombinant human BACE1 preincubated with enzyme for 20 mins followed by addition of Rh-EVNLDAEFK-Quencher as substrate measured after 60 mins by FRET assay
endpointLabel: IC50 (nM)
Note: unit nM is implicit; provide only the numeric part.

[[record]]
smilesrepr = "FC(F)(F)Oc1ccc2nc(-c3cccc(N4CCc5ccccc5C4)n3)[nH]c2c1"
reportedmeasurement = 1100


Request: IC50, test system Beta-secretase 1 (Homo sapiens, UniProt P56817), entry "Clc1ccc2nc(-c3cccc(N4CCc5ccccc5C4)n3)[nH]c2c1"
1800

Request: IC50, test system Beta-secretase 1 (Homo sapiens, UniProt P56817), entry "FC(F)(F)c1ccc2nc(-c3cccc(N4CCc5ccccc5C4)n3)[nH]c2c1"
3600

Request: IC50, test system Beta-secretase 1 (Homo sapiens, UniProt P56817), entry "Clc1ccc2nc(-c3cccc(N4CCc5ccccc5C4)c3)[nH]c2c1"
1300

----------
# target: Cholinesterase (Homo sapiens)
# protocolSummary: Inhibition of human serum BuChE at 10 uM using butyrylthiocholine chloride as substrate preincubated for 15 mins followed by substrate addition and measured at 1 min time interval by Ellman's method relative to control
Quick reference for inhibition among some compounds
Note: unit % is implicit; provide only the numeric part.

Recorded results for 4 compounds are shown here.
[[record]]
smilesrepr = "Clc1ccc2nc(-c3cccc(N4CCc5ccccc5C4)n3)[nH]c2c1"
target = "Cholinesterase (Homo sapiens)"
unitsofmeasure = "%"
reportedmeasurement = 19.8

[[record]]
smilesrepr = "Fc1ccc2c(c1)CCN(c1cccc(-c3nc4ccc(F)cc4[nH]3)n1)C2"
target = "Cholinesterase (Homo sapiens)"
unitsofmeasure = "%"
reportedmeasurement = 33.7

[[record]]
smilesrepr = "Clc1ccc2nc(-c3cccc(N4CCc5ccccc5C4)c3)[nH]c2c1"
target = "Cholinesterase (Homo sapiens)"
unitsofmeasure = "%"
reportedmeasurement = 27.6

[[record]]
smilesrepr = "FC(F)(F)Oc1ccc2nc(-c3cccc(N4CCc5ccccc5C4)n3)[nH]c2c1"
target = "Cholinesterase (Homo sapiens)"
unitsofmeasure = "%"
reportedmeasurement = 11.7


Turning to the following compound.
Which value of inhibition has been reported for "c1cc(-c2nc3ccccc3[nH]2)cc(N2CCc3ccccc3C2)c1" in the records?
18.3

----------
Quick reference for Papp at 10 h, 100 ug/ml among some molecules
# protocolSummary: Permeability of the compound in PBS/EtOH at 100 ug/ml after 10 hrs by PAMPA-BBB assay
# Format: ADME
# assayContext: read-out: permeability
Note: unit ×10⁻⁶ cm/s is implicit; provide only the numeric part.

Which value of Papp at 10 h, 100 ug/ml has been reported for "c1cc(-c2nc3ccccc3[nH]2)cc(N2CCc3ccccc3C2)c1" in the records?
8.5

Which value of Papp at 10 h, 100 ug/ml has been reported for "Nc1cccc2nc(-c3cccc(N4CCc5ccccc5C4)c3)[nH]c12" in the records?
13

Which value of Papp at 10 h, 100 ug/ml has been reported for "Fc1ccc2nc(-c3cccc(N4CCc5ccccc5C4)c3)[nH]c2c1" in the records?
12.6

Which value of Papp at 10 h, 100 ug/ml has been reported for "c1cc(-c2nc3ccccc3[nH]2)nc(N2CCc3ccccc3C2)c1" in the records?
15.9

Which value of Papp at 10 h, 100 ug/ml has been reported for "Cc1ccc2nc(-c3cccc(N4CCc5ccccc5C4)c3)[nH]c2c1" in the records?
9.6

Which value of Papp at 10 h, 100 ug/ml has been reported for "Clc1cc2nc(-c3cccc(N4CCc5ccccc5C4)c3)[nH]c2cc1Cl" in the records?
9.9

Which value of Papp at 10 h, 100 ug/ml has been reported for "Fc1cc2nc(-c3cccc(N4CCc5ccccc5C4)n3)[nH]c2cc1F" in the records?
13.9

Which value of Papp at 10 h, 100 ug/ml has been reported for "FC(F)(F)c1ccc2nc(-c3cccc(N4CCc5ccccc5C4)n3)[nH]c2c1" in the records?
5.4

Which value of Papp at 10 h, 100 ug/ml has been reported for "Oc1ccc2nc(-c3cccc(N4CCc5ccccc5C4)c3)[nH]c2c1" in the records?
8.6

Which value of Papp at 10 h, 100 ug/ml has been reported for "COc1ccc2c(c1)CCN(c1cccc(-c3nc4ccc(OC)cc4[nH]3)n1)C2" in the records?
11.5
